- TEST DESCRIPTION: NCI Yeast Anticancer Drug Screen. Data for the cln2 rad14 strain (AID 165);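 further: 0% = growth equal to vehicle treated cultures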
- TEST CONDITIONS: S. cerevisiae cln2 rad14 strain, at 50.0 µM, hits give high values
This is part of a sample that, as a whole, favours compounds with a hit. Of some 79,000 tested, about 15% had one in any assay.
OBSERVED PROPERTY: growth inhibition (%)

COMPOUND | OBSERVED PROPERTY | UNIT INFO | MEASURED NUMBER
CC(C)=C(CSC#N)S(=O)(=O)c1ccc(C)cc1 | growth inhibition | % | -5.1
Cc1onc(-c2c(Cl)cccc2Cl)c1C(=O)SC1=NC(C)N2C(SC(=O)c3c(-c4c(Cl)cccc4Cl)noc3C)=NC(C)N12 (stereo not given) | growth inhibition | % | 11.7
Clc1cccc2c(SCCCCCSc3c4ccccc4nc4c(Cl)cccc34)c3ccccc3nc12 | growth inhibition | % | -33.5
CC(=O)Nc1ccc(-c2nnc(SCC(=O)Nc3ccccc3)o2)cc1 | growth inhibition | % | -1.8
O=[N+]([O-])c1ccc(S(=O)(=O)c2ccc(NCN3CCCCC3)cc2)cc1 | growth inhibition | % | -3.95

----------
- TEST DESCRIPTION: NCI Yeast Anticancer Drug Screen. Data for the sgs1 mgt1 strain (AID 161);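 further: 0% = growth of cultures given vehicle only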
- TEST CONDITIONS: S. cerevisiae sgs1 mgt1 strain, at 50.0 µM, hits give high values
This is part of a sample that, as a whole, favours compounds with a hit. Of some 79,000 tested, about 15% had one in any assay.
Reported growth inhibition values are given for each entry in this list.

COMPOUND | growth inhibition (%)
Cc1nc(N)nc2c1ncn2CCO | 9.6
COc1ccc(C2ON(c3ccccn3)CC=C2C)cc1 (configuration not stated) | 12.6
O=C1CCC(=O)O1 | -11.7
O=S1CCCO1 (configuration not stated) | -13.8
CC1CCC(NC2=NCCO2)C(C)C1 (configuration not stated) | -3.85
CC(=O)Nc1c([N+](=O)[O-])cc(C2CCCCC2)cc1[N+](=O)[O-] | 4.25
COc1ccc2c(=O)c(O)c(-c3ccccc3)oc2c1 | 42.5
CC(=O)OCC(=O)c1cc(C)n(C)c(=O)c1CN1C(=O)c2ccccc2C1=O | 2.2
O=C(O)c1ccc([N+](=O)[O-])cc1OCc1ccccc1 | 12.9
O=C(O)c1cnc2cc3c(cc2c1Nc1cccc(Cl)c1)OCO3 | 4.45
c1ccc(-c2c(-c3cccs3)[nH]c(-c3cccs3)c2-c2ccccn2)nc1 | 45.7
O=C1CCC(c2ccccc2)(C2CCN(Cc3ccc(F)cc3)CC2)C(=O)N1 (configuration not stated) | -5.85

----------
- TEST DESCRIPTION: NCI Yeast Anticancer Drug Screen. Data for the rad50 strain (AID 155);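 further: 0% = growth of vehicle-only cultures of the same strain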
- TEST CONDITIONS: S. cerevisiae rad50 strain growth inhibition; at 50.0 µM
This is part of a sample that, as a whole, favours compounds with a hit. Of some 79,000 tested, about 15% had one in any assay. The source made the active and inactive calls. Cut-off read from the data, not from the text of the source: active = growth inhibition above about 70%; inactive = the rest. Where a SMILES comes first, the peptide text is derived from it. [ ]: non-standard residue; d: D form. The star is where a group is joined. ξ: configuration not given here. Boc = CC(C)(C)OC(=O)*; ξV = CC(C)C(N)C(=O)O; OBn = c1ccc(CO*)cc1
Outcome codes: true (active), false (inactive)

MOLECULE | LABEL
c1ccc2c(c1)nc1n2CC2(CS1)CSc1nc3ccccc3n1C2 | false
Nc1ccc(S(=O)(=O)n2c(=O)oc3cc(Cl)ccc32)cc1 | false
CCOC(=O)N1C2CC=CCC1C1(c3ccccc3)OC2(c2ccccc2)c2ccccc21 | false
CC(C)(C)OC(=O)Cn1ncn(NC(=O)Cc2ccccc2)c1=O | false
CC1=NN(C(=O)c2ccc(Cl)cc2)C(=O)/C1=C/c1ccco1 | false
O=C(NC1CCCCC1)Oc1ccc(-c2ccccc2)cc1Cl | true
C[C@]12CCC(=O)C=C1CC[C@@H]1[C@@H]2CC[C@]2(C)C(=O)NC(=O)C[C@@H]12 | false
CCSC(=S)S | false
CC(C)C(NC(=O)OC(C)(C)C)C(=O)NCC(=O)OCc1ccccc1 (stereo not given) (Boc-[ξV]-Gly-OBn) | false
CN(C)c1nc(N(C)C)nc(N(C)C=O)n1 | false
CCC1(C)CCC(C)(CC)c2cc(C)ccc21 (stereo not given) | false
O=C1c2ccccc2C(=O)N1CNc1ccccc1S | false
CCOC(=O)/N=c1/nc2ccn(C)c2c(NC(=O)OCC)s1 | false
COc1ccc(CC#N)cc1OC | false
O=C1NC(=O)[C@@H](OCC2CCCCC2)[C@@H]2OCC3OC(C(O)C3O)C12 (stereo not given in full) | false
CCN(CC)C(=O)/C(C)=C(\C)c1ccccc1 | false
CCCCCCCCCC1(C(=O)OCC)OC1(C)C (stereo not given) | false
O=C1CN(CCN2CCCCC2)CC(=O)N2Cc3ccccc3CN12 | false
CC(O)CN1CCOCC1 (stereo not given) | false
CC(=O)Nc1ccc(N=Nc2c(C)nn(C(=N)N)c2C)cc1 | false
CC(=O)OC1CC2CC1C1C=CCC21 (stereo not given) | false
CC(C)COC(=O)C(=O)OCC(C)C | false
CC(C)(C)c1ccc(OS(=O)(=O)c2ccccc2)c(Cl)c1 | false
O=C(N/N=C\c1ccc(Cl)cc1)c1ccccc1 | false
CCCCCC/C=N/Nc1ccc([N+](=O)[O-])cc1[N+](=O)[O-] | false
